These measurements were taken from patent US20070259888A1.

EC50 values, listed per item
Test target: hM1 (human Muscarinic receptor subtype 1) (Homo sapiens, UniProt P11229)
Sequence (P11229 whole entry): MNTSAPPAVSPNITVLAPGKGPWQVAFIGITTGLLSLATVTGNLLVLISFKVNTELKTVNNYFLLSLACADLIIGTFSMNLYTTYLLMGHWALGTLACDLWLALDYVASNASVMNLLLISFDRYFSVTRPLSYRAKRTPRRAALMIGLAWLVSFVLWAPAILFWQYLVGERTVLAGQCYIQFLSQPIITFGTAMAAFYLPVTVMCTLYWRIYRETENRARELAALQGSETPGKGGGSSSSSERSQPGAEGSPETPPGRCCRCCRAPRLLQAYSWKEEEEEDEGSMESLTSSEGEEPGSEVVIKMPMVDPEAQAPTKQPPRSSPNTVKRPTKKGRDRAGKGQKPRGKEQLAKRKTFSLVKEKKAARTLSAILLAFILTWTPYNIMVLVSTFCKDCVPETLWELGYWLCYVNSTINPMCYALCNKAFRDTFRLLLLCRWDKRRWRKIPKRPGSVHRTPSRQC
Method summary: Human M1 calcium mobilization FLIPR assay
Particulars: CHO cells expressing hM1, FLIPR; read-out: hM1EC50
The reply should contain only the number, in nM.

>>> numeric_value("C=CCOCC1CCCN(C[C@@H]2CCCC[C@H]2NC(=O)c2ccc(CN3CCN(C)CC3)cc2)C1 (mixture of isomers)")
49
>>> numeric_value("CCOC[C@@H]1CCCN(C[C@H]2CCCC[C@@H]2NC(=O)C2CCCCC2)C1")
157
>>> numeric_value("CCOC[C@@H]1CCCN(C[C@H]2CCCC[C@@H]2NC(=O)c2ccccc2)C1")
119
>>> numeric_value("CCCCC1CCCN(C[C@@H]2CCCC[C@H]2NC(=O)CCc2ccc(Cl)cc2)C1 (mixture of isomers)")
174
>>> numeric_value("CCOC[C@@H]1CCCN(C[C@H]2CCCC[C@@H]2NC(=O)c2ccc(N3CCCC3)nc2)C1")
41

Q: Need EC50, item `O=C(N[C@H]1CCCC[C@@H]1CN1CCCCC1)c1ccc(-n2cccn2)nc1`
A: 26

Q: Recorded EC50 of `CCOC[C@@H]1CCCN(C[C@H]2CCCC[C@@H]2NC(=O)CNC(C)=O)C1` , please.
A: 322

Q: Which measured EC50 value corresponds to CCOCC1CCCN(C[C@@H]2CCCC[C@H]2NC(=O)c2ccc(-c3cnco3)cc2)C1 (mixture of isomers) ?
A: 17

Q: Can you look up the measured EC50 of `CCOC[C@@H]1CCCN(C[C@H]2CCCC[C@@H]2NC(=O)c2ccc(CNS(C)(=O)=O)cc2)C1` for me?
A: 20

---

A collection of molecules and their measured log10(EC50)
Test target: human M2 receptor (human Muscarinic receptor subtype 2) (Homo sapiens, UniProt P08172)
Sequence (P08172 whole entry): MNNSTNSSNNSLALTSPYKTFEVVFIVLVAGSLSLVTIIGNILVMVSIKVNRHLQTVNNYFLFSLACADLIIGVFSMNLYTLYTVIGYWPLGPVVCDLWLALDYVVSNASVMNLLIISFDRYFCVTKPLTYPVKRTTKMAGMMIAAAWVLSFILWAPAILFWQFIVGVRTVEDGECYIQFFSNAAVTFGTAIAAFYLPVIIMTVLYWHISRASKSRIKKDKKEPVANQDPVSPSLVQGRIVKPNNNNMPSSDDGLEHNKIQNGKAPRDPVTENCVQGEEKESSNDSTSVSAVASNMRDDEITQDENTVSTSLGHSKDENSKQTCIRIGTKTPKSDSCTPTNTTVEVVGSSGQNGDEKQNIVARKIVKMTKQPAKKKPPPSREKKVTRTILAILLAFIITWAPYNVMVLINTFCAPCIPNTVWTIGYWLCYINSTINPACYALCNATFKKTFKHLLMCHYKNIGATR
Method summary: hM2 receptor GTPγS binding
Particulars: CHO membranes expressing hM2, GTPγ35S binding; read-out: hM2_EC50
Field: value | Transform: log10 | Quantity: EC50 | Unit: nM

>>> numeric_value("CCOCC1CCCN(C[C@@H]2CCCC[C@H]2NC(=O)c2ccc(-c3cnco3)cc2)C1 (mixture of isomers)")
3.74

Q: What value of log10(EC50) on human M2 receptor (human Muscarinic receptor subtype 2) (Homo sapiens, UniProt P08172) does `CCOC[C@@H]1CCCN(C[C@H]2CCCC[C@@H]2NC(=O)c2ccc(CNS(C)(=O)=O)cc2)C1` have?
A: 3.13

Q: # value lookup — system human M2 receptor (human Muscarinic receptor subtype 2) (Homo sapiens, UniProt P08172), readout log10(EC50), item `C=CCO[C@@H]1CCCN(C[C@H]2CCCC[C@@H]2NC(=O)c2ccc(-n3cccn3)nc2)C1`
A: 3.65

Q: Please tell me: log10(EC50) of `CCOC[C@@H]1CCCN(C[C@H]2CCCC[C@@H]2NC(=O)c2ccc(CN(C(C)=O)C(C)=O)cc2)C1` , system human M2 receptor (human Muscarinic receptor subtype 2) (Homo sapiens, UniProt P08172)?
A: 3.52

Q: Request - read-out log10(EC50) | tested on human M2 receptor (human Muscarinic receptor subtype 2) (Homo sapiens, UniProt P08172) | molecule CCOC[C@@H]1CCCN(C[C@H]2CCCC[C@@H]2NC(=O)C2CCc3ccccc3O2)C1 (stereo partly drawn)
A: 2.76

Q: Request: log10(EC50), test system human M2 receptor (human Muscarinic receptor subtype 2) (Homo sapiens, UniProt P08172), entry `CCOC[C@@H]1CCCN(C[C@H]2CCCC[C@@H]2NC(=O)c2ccc(CNS(=O)(=O)C3CC3)cc2)C1`
A: 3.16

Q: Under human M2 receptor (human Muscarinic receptor subtype 2) (Homo sapiens, UniProt P08172): log10(EC50) value of `CCOC[C@@H]1CCCN(C[C@H]2CCCC[C@@H]2NC(=O)C2CCCCC2)C1` ?
A: 3.03

Q: API: value(readout=log10(EC50), system=human M2 receptor (human Muscarinic receptor subtype 2) (Homo sapiens, UniProt P08172)) for record `CCOC[C@@H]1CCCN(C[C@H]2CCCC[C@@H]2NC(=O)c2ccc(N3CCCC3)nc2)C1`
A: 2.03

Q: Entry `C=CCOC[C@@H]1CCCN(C[C@H]2CCCC[C@@H]2NC(=O)c2ccc(-n3ccnc3)nc2)C1` , system human M2 receptor (human Muscarinic receptor subtype 2) (Homo sapiens, UniProt P08172): what log10(EC50) was measured?
A: 2.33

Q: Short answer please: log10(EC50), human M2 receptor (human Muscarinic receptor subtype 2) (Homo sapiens, UniProt P08172), entry `CCOC[C@@H]1CCCN(C[C@H]2CCCC[C@@H]2NC(=O)c2ccccc2)C1`
A: 3.28

Q: Param readout = log10(EC50); param system = human M2 receptor (human Muscarinic receptor subtype 2) (Homo sapiens, UniProt P08172); param query = CCCCC1CCCN(C[C@@H]2CCCC[C@H]2NC(=O)CCc2ccc(Cl)cc2)C1 (mixture of isomers) ; response: value
A: 3.09

Q: Fill in the recorded log10(EC50) for this molecule, with human M2 receptor (human Muscarinic receptor subtype 2) (Homo sapiens, UniProt P08172) as test system: CCCCC1CCCN(C[C@@H]2CCCC[C@H]2NC(=O)c2ccc(CN(CC)CC)cc2)C1 (mixture of isomers)
A: 2.22

Q: Requested read-out log10(EC50), target or system human M2 receptor (human Muscarinic receptor subtype 2) (Homo sapiens, UniProt P08172), entry C=CCOCC1CCCN(C[C@@H]2CCCC[C@H]2NC(=O)c2ccc(CN3CCN(C)CC3)cc2)C1 (mixture of isomers)
A: 2.59

Q: Give human M2 receptor (human Muscarinic receptor subtype 2) (Homo sapiens, UniProt P08172) log10(EC50) for `CCOC[C@@H]1CCCN(C[C@H]2CCCC[C@@H]2NC(=O)c2ccc(-n3cnnn3)cc2)C1`
A: 3.08
